pIC50: −log10 of the molar value.
Form: system (Endothelin receptor type B (Homo sapiens, UniProt P24530)), quantity (pIC50), values below.
Reported property: pIC50

Previously resolved entries follow.
C=CCCc1ccc2c(n1)[C@@H](c1ccc(OC)cc1)[C@H](C(=O)O)[C@H]2c1ccc2c(c1)OCO2 : 7.85
COc1ccc([C@@H]2c3nc(CC(C)C)ccc3[C@H](c3ccc4c(c3)OCO4)[C@H]2C(=O)O)cc1 : 8.08
CCOCc1ccc2c(n1)[C@@H](c1ccc(OC)cc1)[C@H](C(=O)O)C2c1ccc2c(c1)OCO2 (single isomer, unassigned) : 6.85
CCCNc1ccc2c(n1)[C@@H](c1ccc(OC)cc1)[C@H](C(=O)O)C2c1ccc2c(c1)OCO2 (single isomer, unassigned) : 7.20

1 = CCc1ccc2c(n1)[C@@H](c1ccc(OC)cc1)[C@H](C(=O)O)[C@H]2c1ccc2c(c1)OCO2
2 = CCNCc1ccc2c(n1)[C@@H](c1ccc(OC)cc1)[C@H](C(=O)O)C2c1ccc2c(c1)OCO2 (single isomer, unassigned)
3 = COc1ccc([C@@H]2c3ncccc3[C@H](c3ccc4c(c3)OCO4)[C@H]2C(=O)O)cc1
4 = CCCCCc1ccc2c(n1)[C@@H](c1ccc(OC)cc1)[C@H](C(=O)O)[C@H]2c1ccc2c(c1)OCO2
Task field, ranking: reported pIC50, descending order. Put the labels in the requested order and write them down.
4, 1, 3, 2
(4: 8.04, 1: 7.06, 3: 6.39, 2: 6.03)

---

Experimental target: Endothelin-1 receptor (Homo sapiens, UniProt P25101)
Sequence (P25101 whole entry): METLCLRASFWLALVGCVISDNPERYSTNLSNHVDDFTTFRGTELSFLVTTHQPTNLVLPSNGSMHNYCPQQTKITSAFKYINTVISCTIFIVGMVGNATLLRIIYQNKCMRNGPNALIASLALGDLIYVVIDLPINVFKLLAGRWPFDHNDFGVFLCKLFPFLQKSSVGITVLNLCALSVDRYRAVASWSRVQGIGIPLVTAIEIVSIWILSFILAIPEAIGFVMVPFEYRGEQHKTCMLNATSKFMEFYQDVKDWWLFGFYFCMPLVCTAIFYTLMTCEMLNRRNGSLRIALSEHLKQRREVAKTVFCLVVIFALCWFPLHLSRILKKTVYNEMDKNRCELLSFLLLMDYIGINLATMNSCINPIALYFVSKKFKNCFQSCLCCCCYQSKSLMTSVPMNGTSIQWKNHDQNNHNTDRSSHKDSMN
pIC50: −log10 of the molar value.
Reported property: pIC50

Previously resolved entries follow.
CCOCc1ccc2c(n1)[C@@H](c1ccc(OC)cc1)[C@H](C(=O)O)C2c1ccc2c(c1)OCO2 (single isomer, unassigned) : 9.29
CCCNc1ccc2c(n1)[C@@H](c1ccc(OC)cc1)[C@H](C(=O)O)C2c1ccc2c(c1)OCO2 (single isomer, unassigned) : 9.92

I = COc1ccc([C@@H]2c3nc(N4CCCC4)ccc3C(c3ccc4c(c3)OCO4)[C@H]2C(=O)O)cc1 (single isomer, unassigned)
II = COc1ccc([C@@H]2c3nc(NC(C)C)ccc3C(c3ccc4c(c3)OCO4)[C@H]2C(=O)O)cc1 (single isomer, unassigned)
III = COc1ccc([C@@H]2c3nc(CC(C)C)ccc3[C@H](c3ccc4c(c3)OCO4)[C@H]2C(=O)O)cc1
IV = COc1ccc([C@@H]2c3nc(CCC(=O)O)ccc3C(c3ccc4c(c3)OCO4)[C@H]2C(=O)O)cc1 (single isomer, unassigned)
rank_up(items): orders items by reported pIC50 in ascending numerical order. Put the labels in the requested order and write them down.
IV, I, III, II
(IV: 6.82, I: 8.66, III: 9.49, II: 10.00)

---

Experimental target: Endothelin receptor type B (Homo sapiens, UniProt P24530)
Sequence (P24530 whole entry): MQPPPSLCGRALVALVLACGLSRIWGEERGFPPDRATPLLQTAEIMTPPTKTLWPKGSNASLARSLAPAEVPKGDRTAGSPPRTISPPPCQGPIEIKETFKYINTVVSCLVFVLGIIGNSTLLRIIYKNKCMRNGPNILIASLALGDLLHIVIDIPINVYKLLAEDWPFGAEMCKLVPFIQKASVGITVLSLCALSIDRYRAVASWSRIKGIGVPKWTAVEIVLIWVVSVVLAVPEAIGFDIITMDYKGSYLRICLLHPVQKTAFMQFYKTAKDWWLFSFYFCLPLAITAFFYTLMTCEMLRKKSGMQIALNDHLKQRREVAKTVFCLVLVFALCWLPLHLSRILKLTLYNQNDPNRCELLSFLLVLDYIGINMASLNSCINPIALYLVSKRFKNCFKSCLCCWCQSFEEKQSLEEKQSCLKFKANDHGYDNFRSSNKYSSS
pIC50: −log10 of the molar value.
Reported property: pIC50

Previously resolved entries follow.
CCCc1ccc2c(n1)[C@@H](c1ccc(OC)cc1)[C@H](C(=O)O)[C@H]2c1ccc2c(c1)OCO2 : 7.52
COc1ccc([C@@H]2c3nc(CCCO)ccc3C(c3ccc4c(c3)OCO4)[C@H]2C(=O)O)cc1 (single isomer, unassigned) : 6.72
CCCOc1ccc2c(n1)[C@@H](c1ccc(OC)cc1)[C@H](C(=O)O)C2c1ccc2c(c1)OCO2 (single isomer, unassigned) : 7.19
COc1ccc([C@@H]2c3nc(NC(C)C)ccc3C(c3ccc4c(c3)OCO4)[C@H]2C(=O)O)cc1 (single isomer, unassigned) : 7.38

I = CCCSc1ccc2c(n1)[C@@H](c1ccc(OC)cc1)[C@H](C(=O)O)C2c1ccc2c(c1)OCO2 (single isomer, unassigned)
II = CCCCc1ccc2c(n1)[C@@H](c1ccc(OC)cc1)[C@H](C(=O)O)[C@H]2c1ccc2c(c1)OCO2
Lab log: flag the item ( I or II ) with the smaller pIC50 figure. Could you answer with the label of the item you picked?
I

meta.source: ChEMBL document CHEMBL1134926
